IC80 (µg/ml) with constrains values by entry
target: HIV Env of isolate C1080.c03 (clade AE) (HIV); assay: cell-based or functional assay
metric: IC80 (µg/ml) with constrains

binder: PGDM1400 (antibody, V domains shown) VH: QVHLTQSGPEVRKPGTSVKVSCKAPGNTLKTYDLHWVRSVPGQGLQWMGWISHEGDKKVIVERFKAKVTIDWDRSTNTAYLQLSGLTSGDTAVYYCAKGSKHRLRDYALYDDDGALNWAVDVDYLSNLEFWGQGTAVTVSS VL: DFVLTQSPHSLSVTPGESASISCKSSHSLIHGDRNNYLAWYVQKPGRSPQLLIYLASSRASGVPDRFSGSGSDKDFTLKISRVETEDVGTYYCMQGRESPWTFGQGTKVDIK
metric: IC80 (µg/ml) with constrains
experimental-result: 0.005 µg/mL
--
binder: ePGDM9 (antibody, V domains shown) VH: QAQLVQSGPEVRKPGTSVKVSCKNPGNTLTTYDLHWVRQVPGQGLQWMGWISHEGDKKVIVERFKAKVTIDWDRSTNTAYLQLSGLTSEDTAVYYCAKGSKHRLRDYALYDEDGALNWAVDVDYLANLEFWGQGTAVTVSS VL: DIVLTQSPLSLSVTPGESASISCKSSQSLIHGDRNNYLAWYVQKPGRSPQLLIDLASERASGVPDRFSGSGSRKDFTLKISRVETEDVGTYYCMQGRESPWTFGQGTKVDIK
metric: IC80 (µg/ml) with constrains
experimental-result: 0.004 µg/mL
--
binder: ePGDM13 (antibody, V domains shown) VH: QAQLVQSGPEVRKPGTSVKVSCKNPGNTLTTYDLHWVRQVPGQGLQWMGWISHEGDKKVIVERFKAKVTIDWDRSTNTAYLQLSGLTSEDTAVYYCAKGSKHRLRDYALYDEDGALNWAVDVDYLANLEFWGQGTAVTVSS VL: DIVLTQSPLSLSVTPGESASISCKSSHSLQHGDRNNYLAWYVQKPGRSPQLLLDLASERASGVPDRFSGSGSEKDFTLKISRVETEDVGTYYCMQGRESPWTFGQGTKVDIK
metric: IC80 (µg/ml) with constrains
experimental-result: 0.003 µg/mL
--
binder: ePGDM5 (antibody, V domains shown) VH: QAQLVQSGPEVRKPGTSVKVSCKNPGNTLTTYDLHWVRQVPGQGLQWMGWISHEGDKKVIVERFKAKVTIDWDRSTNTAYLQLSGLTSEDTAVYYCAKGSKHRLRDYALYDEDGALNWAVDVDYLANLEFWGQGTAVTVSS VL: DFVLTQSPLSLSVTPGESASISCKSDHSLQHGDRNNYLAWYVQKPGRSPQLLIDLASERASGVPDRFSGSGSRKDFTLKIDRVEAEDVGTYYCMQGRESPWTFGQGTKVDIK
metric: IC80 (µg/ml) with constrains
experimental-result: 0.011 µg/mL
